# Test system: HT29 colon
# Run Description: NCI-60 one-dose screen, 48 h (100 = growth as untreated, 0 = no growth, -100 = all killed)
# Test Context: 10 µM unless noted
Compounds without any hit were thinned out: in the full panel of roughly 83,000, 20% have a hit.
Metric: growth (%)

Molecule	Metric	Quantitative Result
O=C(/C(=C\c1c(-c2ccccc2)[nH]c2ccccc12)S(=O)(=O)c1ccccc1)c1ccccc1	growth	65.9
COc1ccc(-c2cc(-c3nnc(SCC(=O)Nc4ccc(C(C)=O)cc4)o3)c3ccccc3n2)cc1	growth	38.9
COc1ccc2[nH]c(-c3ccccc3)c(C=C(C#N)C#N)c2c1	growth	17.2
COc1ccccc1Nc1nnc(-c2ccc(Cl)cc2)o1	growth	16.1
NS(=O)(=O)c1ccc(-n2nc(-c3ccccc3)ccc2=O)cc1	growth	112
COc1cc(C2=NN(C=O)C(c3cccc(Nc4ccnc5cc(C(F)(F)F)ccc45)c3)C2)cc(OC)c1OC (stereo not given)	growth	15.3
O=[N+]([O-])c1ccc(N=Nc2c(O)c(N=Nc3cc([N+](=O)[O-])cc([N+](=O)[O-])c3O)cc(N=Nc3cc(S(=O)(=O)O)cc4cc(S(=O)(=O)O)cc(O)c34)c2O)cc1	growth	99.1
C#Cc1ccccc1NC(=O)c1sc2nc3c(cc2c1N)CCCCCC3	growth	36.3
COc1ccc2cc(/C=C3\N=C(c4cc(OC)c(OC)c(OC)c4)OC3=O)c(OC)nc2c1	growth	98.8
CC(=O)c1cnc(-c2ccccc2)nc1CBr	growth	43.5
COc1ccc(C(C)c2cc(OC)c(OC)c(OC)c2)cc1 (stereo not given)	growth	4.2
CC(=O)O[C@@H]1C[C@]2(C)[C@H]3[C@H](O)C[C@@H]4C5=CC(C)(C)CC[C@]5(C)CC[C@@]4(C)[C@]3(C)CC[C@H]2C(C)(C)[C@H]1O	growth	97.8
CCN1CCN(c2ccc(NC(=O)Nc3nc4ccc(-c5ccccc5OC)cc4s3)cc2)CC1	growth	-92
COc1cc(/C=C/C(=O)c2cccs2)ccc1OCc1ccc(Cl)nc1	growth	97.3
C=C1C(=O)O[C@H]2[C@H]1CC/C(COC(=O)c1cccnc1N)=C\CC[C@@]1(C)O[C@@H]21	growth	-10.4
CCCCn1c(=O)c(/C=C/C(=O)/C=C/c2ccc(O)c(OC)c2)cc2ccc(Cl)cc21	growth	-41.7
Nc1cc(N)nc(SCC(=O)O)n1	growth	85.1
Sc1cccc2cccnc12	growth	15.8
Fc1ccc(N/N=C/c2ccc(-n3cccn3)cc2)cc1	growth	93.5
C#C[C@@]1(O)[C@@H](CO)O[C@@H](n2cc(I)c3c(N)ncnc32)[C@@H]1O	growth	2.8

----------
# Tested on: SK-MEL-5 melanoma
# Run Description: NCI-60 one-dose screen, 48 h (100 = growth as untreated, 0 = no growth, -100 = all killed)
# Test Context: 10 µM unless noted
The panel holds about 83,000 compounds, 20% with a hit somewhere; the sample as a whole holds those more often.
// reported growth per item
Metric: growth (%)

Compound	Quantitative Result
COC(=O)CCc1cc(O)c2c(c1)[C@@H](C(=O)OC)[C@H](c1ccc(O)c(O)c1)O2	76.4
[2H]c1nc(Nc2ncc3cc(C(=O)N(C)C)n(C4CCCC4)c3n2)c([2H])c([2H])c1N1C([2H])([2H])C([2H])([2H])NC([2H])([2H])C1([2H])[2H]	72.3
CCc1n(Cc2ccc3ccccc3c2)c2ccccc2[n+]1Cc1ccc2ccccc2c1	38.8
O=C1c2ccccc2C(=O)c2c1oc1c2c(=O)[nH]c2ccc(Cl)cc21	12.3
CCc1ccc(OCc2ccccc2C(=O)Nc2ccc3nc(C)cc(N)c3c2)cc1	-90.5
O=C(/C(=C\c1c(-c2ccccc2)[nH]c2ccccc12)S(=O)(=O)c1ccccc1)c1ccccc1	47.7
Cc1cccc(NC(=O)c2sc3nc4c(cc3c2N)CN(Cc2ccccc2)CC4)c1C	39.7
Clc1ccc2c(NCCCNC3CCCCC3)ccnc2c1	99.9
CCCCn1c(=O)c(/C=C/C(=O)/C=C/c2ccc(O)c(OC)c2)cc2ccc(Cl)cc21	3.38
C#C[C@@]1(O)[C@@H](CO)O[C@@H](n2cc(-c3ccco3)c3c(N)ncnc32)[C@@H]1O	89
CCO/C=N/S(=O)(=O)c1cc2c(cc1Cl)NC=NS2(=O)=O	102
CC1(C)[C@@H](O)CC[C@]2(C)[C@H]3CC[C@@H]4[C@H]5[C@H](c6cn(-c7ccccc7)nn6)CC[C@]5(CO)CC[C@@]4(C)[C@]3(C)CC[C@@H]12	83.7
Oc1c(CCl)cc(Cl)cc1Cc1cc(Cl)cc(Cc2cc(Cl)cc(CCl)c2O)c1O	-1.94
COc1cc(C2=NN(c3ccccc3)C(c3cccc(Nc4ccnc5cc(C(F)(F)F)ccc45)c3)C2)cc(OC)c1OC (stereo unspecified)	89.8
Cc1cc(O)cc(O)c1N=NC1=NCCS1	111
COc1ccc(C2C(c3ccccc3)C(=O)N2c2cc(OC)c(OC)c(OC)c2)cc1I (stereo unspecified)	-41
CC(=O)Oc1c2c(nc3c1c1ccccc1n3Cc1ccccc1)-c1ccccc1C2	83.7
COc1ccc2nc(-c3ccc(OC)c(OC)c3)cc(-c3nnc(SCC(=O)Nc4ccc(C(C)=O)cc4)o3)c2c1	94.1
Nc1ccccc1NC(=O)c1ccc(CSc2nc(N3CCOCC3)c3cccn3n2)cc1	-41.1
CC1=C/C(=N\N=C2/C=C(C)CC(C)(C)C2)CC(C)(C)C1	99
Cc1[nH]c(N=Nc2ccccc2)nc1N=Nc1ccccc1	48.1
CC1(C)CC[C@]2(c3nnc(-c4ccncc4)o3)CC[C@]3(C)C(=CC[C@@H]4[C@@]5(C)CCC(=O)C(C)(C)[C@@H]5CC[C@]43C)[C@@H]2C1	74.3
CC(=O)c1cnc(-c2ccccc2)nc1CBr	91.6
N#Cc1c(-c2ccc(Cl)cc2)cc(-c2cc3ccccc3o2)nc1SCC(=O)c1ccc(Cl)cc1	100
CCOC(=O)c1sc(/N=C2\NC(=O)/C(=C/c3ccc(N4CCN(C)CC4)cc3)S2)nc1C	98
Nc1ccc2c(c1)C(=O)C(=O)c1c-2nc2ccccn12	-99.8
COC(=O)/C=C1\SC(=Nc2cccc(OC)c2)N(CCc2c[nH]c3ccccc23)C1=O	77.2
COc1ccc2[nH]c3nc4cnccc4cc3c2c1	108
COc1ccc2c(c1)Oc1nc(N)c(C#N)c(N)c1C2Sc1ccc(O)cc1 (stereo unspecified)	90.3
C=C1C(=O)O[C@H]2[C@H]1CC/C(COC(=O)CCC(=O)OC/C1=C/CC[C@@]3(C)O[C@H]3[C@H]3OC(=O)C(=C)[C@@H]3CC1)=C\CC[C@@]1(C)O[C@@H]21	61.4
O=C1C(Cl)=C(NCCCN(CCCNC2=C(Cl)C(=O)c3ccccc3C2=O)C2=C(Cl)C(=O)c3ccccc3C2=O)C(=O)c2ccccc21	-59.1
NC[C@@H]1CCN(c2cc3c(cc2F)c(=O)n(N)c(=O)n3Cc2ccc(-c3ccccc3)cc2)C1	72.4
C=C1C(=O)O[C@H]2[C@H]1CC/C(C=Nc1c(N)cc(F)cc1Br)=C\CC[C@@]1(C)O[C@@H]21	96.9
CCCCCCC/C=C/[C@H]1O[C@]23C(=O)C[C@@]4(C[C@@H](OC5OC(CO)C(O)C(O)C5O)C[C@@H]4[C@H]2C=C1C)OC3=O (stereo partly specified)	8.74
Cc1ccccc1NC(=O)c1sc2nc(C)c(C(C)O)cc2c1N (stereo unspecified)	31.4
O=C1CC23OC4ON=C(Br)C4C2C(O)c2ccccc2N13 (stereo unspecified)	111

Hey, just so you know, these numbers are from PubChem BioAssay (NCI).
